- target-of-assay: T1, human B7H3 on cancer cell lines (human, UniProt Q5ZPR3 29-534)
- T1 construct: whole, on cells; Endogenous antigen on tumour cells; also called B7H3-positive cells (A498, MCF-7, Caki-2, U251, U87 MG, 786-O, NCI-H292)
- T1 sequence (looked up): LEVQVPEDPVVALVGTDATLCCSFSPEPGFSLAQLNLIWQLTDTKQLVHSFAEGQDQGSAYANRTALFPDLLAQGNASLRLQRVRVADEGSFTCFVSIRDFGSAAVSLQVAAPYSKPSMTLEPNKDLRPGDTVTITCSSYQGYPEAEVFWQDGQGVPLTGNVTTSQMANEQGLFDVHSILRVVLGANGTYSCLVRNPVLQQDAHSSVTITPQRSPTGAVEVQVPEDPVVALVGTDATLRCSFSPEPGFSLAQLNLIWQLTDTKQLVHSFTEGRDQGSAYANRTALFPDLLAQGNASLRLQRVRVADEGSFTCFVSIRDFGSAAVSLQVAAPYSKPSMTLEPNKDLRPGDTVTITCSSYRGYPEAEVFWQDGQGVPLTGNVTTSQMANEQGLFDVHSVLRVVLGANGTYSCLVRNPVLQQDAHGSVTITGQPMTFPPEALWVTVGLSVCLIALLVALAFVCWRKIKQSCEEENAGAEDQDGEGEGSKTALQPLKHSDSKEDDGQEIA
- experimental-details: flow cytometry on A498 cells, dose response from 10 ug/mL (1:5 dilution), FITC secondary antibody
quantity-kind: pEC50
Worth noting: pEC50 values are minus log10 of concentrations stated in mol/L.

# get_value(readout='pEC50', item= TPP-6501 (antibody, human IgG1, lambda, V domains shown) VH: EVQLLESGGGLVQPGGSLRLSCAASGFTFSSYGMHWVRQAPGKGLEWVSAISGSGGSTYYADSVKGRFTISRDNSKNTLYLQMNSLRAEDTAVYYCARGSNYLGMDVWGQGTLVTVSS VL: QSVLTQPPSASGTPGQRVTISCSGSSSNIGRNIVNWYQQLPGTAPKLLIYRSNQRPSGVPDRFSGSKSGTSASLAISGLRSEDEADYYCQTWGTGWVFGGGTKLTVLG )
8.91

Okay, and TPP-6499 (antibody, human IgG1, lambda, V domains shown) VH: EVQLLESGGGLVQPGGSLRLSCAASGFTFRDFYMNWIRQAPGKGLEWVSSISASGKYTYYADSVKGRFTISRDNSKNTLYLQMNSLRAEDTAVYYCAREWGYCTNDVCRNWFDPWGQGTLVTVSS VL: QSVLTQPPSASGTPGQRVTISCSGGYSNVGGNNVNWYQQLPGTAPKLLIYGNSNRPSGVPDRFSGSKSGTSASLAISGLRSEDEADYYCQSYDSSLSGSVFGGGTKLTVLG ?
9.07

Okay, and TPP-6502 (antibody, human IgG1, lambda, V domains shown) VH: EVQLLESGGGLVQPGGSLRLSCAASGFTFSTYGMHWVRQAPGKGLEWVSAISGSGGSTYYADSVKGRFTISRDNSKNTLYLQMNSLRAEDTAVYYCTRGYYYYGMDVWGQGTLVTVSS VL: QSVLTQPPSASGTPGQRVTISCSGGSSNIGSNPVNWYQQLPGTAPKLLIYGNSKRPSGVPDRFSGSKSGTSASLAISGLRSEDEADYYCQSYDSSLSGWVFGGGTKLTVLG ?
9.84

Okay, and TPP-6515 (antibody, human IgG1, lambda, V domains shown) VH: EVQLLESGGGLVQPGGSLRLSCAASGFTFSSYGMHWVRQVPGKGLEWVSAISGSGGTTYYADSVKGRFTISRDNSKNTLYLQMNSLRAEDTAVYYCARGGYHFLFDYWGQGTLVTVSS VL: QSVLTQPPSASGTPGQRVTISCSGSSSNIGSNTVNWYQQLPGTAPKLLIYRNDQRLLGVPDRFSGSKSGTSASLAISGLRSEDEADYYCQSYDSSLSGWVFGGGTKLTVLG ?
9.18
